The entries below come with measured Percent function blocking (%) values attached.
Target: T1, human CTGF (antigen of the Biacore assays) (human, UniProt P29279 27-349, limits assumed)
T1 construct: also called human CTGF protein
T1 sequence: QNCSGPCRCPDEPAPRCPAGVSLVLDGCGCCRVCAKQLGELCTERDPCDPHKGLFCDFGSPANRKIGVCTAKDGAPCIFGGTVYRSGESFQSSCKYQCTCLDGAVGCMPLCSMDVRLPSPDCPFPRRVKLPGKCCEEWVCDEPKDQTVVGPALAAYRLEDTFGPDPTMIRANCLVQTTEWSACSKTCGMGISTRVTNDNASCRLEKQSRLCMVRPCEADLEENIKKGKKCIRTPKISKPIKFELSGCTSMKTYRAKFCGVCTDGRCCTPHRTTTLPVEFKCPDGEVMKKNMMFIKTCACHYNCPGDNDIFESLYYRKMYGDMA
Test: SPR (Biacore T200), human CTGF on CM5 chip, antibody 150 ug/ml then 50 nM TGF-β1 as competitor
Text: The antigen human CTGF was firstly fixed onto a CM5 biosensor chip (Cat. #BR-1005-30, GE) by amino coupling at a level of 1500 RU. […] The reaction signals were detected in real time using a Biacore T200 instrument to obtain an association and dissociation curve. […] The data obtained from the experiment were statistically analyzed using GE Biacore T200 Evaluation version 3.0 software. […]
# output: numeric value plus its unit

The examples below pair each entry with its known result.
Query :: Returns the measured Percent function blocking (%) for the input binder. Input: Hu147-31wk (antibody, human IgG1, kappa, V domains shown, humanized from mab147, Hu147-VH3/VL1; IgG1/kappa) VH: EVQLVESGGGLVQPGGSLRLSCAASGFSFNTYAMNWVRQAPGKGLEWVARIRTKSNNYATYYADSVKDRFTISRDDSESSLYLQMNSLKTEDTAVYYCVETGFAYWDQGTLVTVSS VL: EIVLTQSPATLSLSPGERATLSCSASSSVSYMHWFQQKPGQSPRLLIYSTSNLASGIPARFSGSGSGTDYTLTISSLEPEDFAVYYCQQRSSYPLTFGQGTKLEIKR
Result :: 55%

Query :: Returns the measured Percent function blocking (%) for the input binder. Input: Hu147-13wk (antibody, human IgG1, kappa, V domains shown, humanized from mab147, Hu147-VH1/VL3; IgG1/kappa) VH: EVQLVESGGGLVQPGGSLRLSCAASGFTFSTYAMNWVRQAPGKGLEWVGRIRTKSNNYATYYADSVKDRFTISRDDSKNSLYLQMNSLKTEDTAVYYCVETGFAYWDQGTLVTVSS VL: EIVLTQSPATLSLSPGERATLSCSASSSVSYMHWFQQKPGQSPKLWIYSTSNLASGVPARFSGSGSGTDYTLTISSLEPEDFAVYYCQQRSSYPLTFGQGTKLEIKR
Result :: 53.3%

Query :: Returns the measured Percent function blocking (%) for the input binder. Input: Hu147-21wk (antibody, human IgG1, kappa, V domains shown, humanized from mab147, Hu147-VH2/VL1; IgG1/kappa) VH: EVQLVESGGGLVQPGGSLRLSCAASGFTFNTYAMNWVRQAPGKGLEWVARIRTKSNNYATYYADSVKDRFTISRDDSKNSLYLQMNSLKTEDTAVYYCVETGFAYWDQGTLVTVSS VL: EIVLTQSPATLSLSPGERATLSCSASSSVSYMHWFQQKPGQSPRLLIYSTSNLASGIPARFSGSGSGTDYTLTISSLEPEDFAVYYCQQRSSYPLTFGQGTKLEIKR
Result :: 51.6%

Others:
Query :: Returns the measured Percent function blocking (%) for the input binder. Input: Hu147-24wk (antibody, human IgG1, kappa, V domains shown, humanized from mab147, Hu147-VH2/VL4; IgG1/kappa) VH: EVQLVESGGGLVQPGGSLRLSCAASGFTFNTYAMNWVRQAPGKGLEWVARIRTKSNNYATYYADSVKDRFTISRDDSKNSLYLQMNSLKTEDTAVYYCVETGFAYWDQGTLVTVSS VL: DIQMTQSPSSLSASVGDRVTITCSASSSVSYMHWFQQKPGKSPKLLIYSTSNLASGVPSRFSGSGSGTDYTLTISSLQPEDFATYYCQQRSSYPLTFGQGTKLEIKR
Result :: 52.8%

Query :: Returns the measured Percent function blocking (%) for the input binder. Input: Hu147-12wk (antibody, human IgG1, kappa, V domains shown, humanized from mab147, Hu147-VH1/VL2; IgG1/kappa) VH: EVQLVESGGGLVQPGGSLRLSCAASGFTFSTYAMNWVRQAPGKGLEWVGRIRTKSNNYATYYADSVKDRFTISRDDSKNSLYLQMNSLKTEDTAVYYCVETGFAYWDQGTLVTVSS VL: EIVLTQSPATLSLSPGERATLSCSASSSVSYMHWFQQKPGQSPKLLIYSTSNLASGIPARFSGSGSGTDYTLTISSLEPEDFAVYYCQQRSSYPLTFGQGTKLEIKR
Result :: 51.6%

Query :: Returns the measured Percent function blocking (%) for the input binder. Input: Hu147-34wk (antibody, human IgG1, kappa, V domains shown, humanized from mab147, Hu147-VH3/VL4; IgG1/kappa) VH: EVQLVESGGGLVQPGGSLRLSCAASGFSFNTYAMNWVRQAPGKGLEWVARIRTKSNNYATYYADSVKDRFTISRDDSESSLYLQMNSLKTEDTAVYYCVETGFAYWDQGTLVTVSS VL: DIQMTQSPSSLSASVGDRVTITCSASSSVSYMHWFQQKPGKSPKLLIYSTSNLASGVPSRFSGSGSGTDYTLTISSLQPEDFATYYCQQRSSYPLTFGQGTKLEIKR
Result :: 56.2%

Query :: Returns the measured Percent function blocking (%) for the input binder. Input: Hu147-23wk (antibody, human IgG1, kappa, V domains shown, humanized from mab147, Hu147-VH2/VL3; IgG1/kappa) VH: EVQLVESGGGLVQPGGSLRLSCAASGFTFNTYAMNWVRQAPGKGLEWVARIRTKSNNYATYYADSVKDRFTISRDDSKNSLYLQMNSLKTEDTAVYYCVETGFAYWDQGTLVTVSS VL: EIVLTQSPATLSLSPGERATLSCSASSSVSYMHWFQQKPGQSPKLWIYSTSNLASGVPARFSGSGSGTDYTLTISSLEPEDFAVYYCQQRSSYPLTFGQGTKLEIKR
Result :: 54.6%
